The entries below are paired with their reported melting point.
Counter-ions that a name gives are not always drawn.

// below: answered compounds
NC(=O)c1ccc(F)c2c1C[C@H](N(CCCCc1c[nH]c3ccc(F)cc13)C1CCC1)CO2 (as salt: hydrochloride) [Compound 83b]	128 °C (dec.)
NC(=O)c1ccc(F)c2c1CC(NCCCCn1ccc3cccc(F)c31)CO2 (centres unmarked) (as salt: hydrochloride)	166 to 168 °C
CCCN(C1COc2cccc(OC)c2C1)[C@H]1CC[C@@H](c2c[nH]c3ccc(F)cc32)CC1 (relative stereo) (as salt: hydrochloride)	148 °C (dec.)
COc1cccc2c(CCCCNC3COc4c(F)ccc(C(N)=O)c4C3)coc12 (centres unmarked)	138 to 141 °C

Lab note: next compound to report on.
Read the entry CCN(CCCc1coc2c(OC)cccc12)C1COc2c(F)ccc(C(N)=O)c2C1 (centres unmarked) (as salt: hydrochloride) and write its reported melting point.
125 to 128 °C

###

# tested-target: 5-HT1A receptor (Homo sapiens, UniProt P08908)
# assay-overview: cAMP accumulation assay, 5-HT1A function
# Assay type: cell-based
# condition-label: cells marked IC50 (antagonist); read-out: 5-HT1A Function cAMP IC50
readout: IC50 (nM)

(A) CNC(=O)c1ccc(F)c2c1C[C@H](N(CCCCc1c[nH]c3ccc(F)cc13)C1CCC1)CO2 [Compound 145a]
(B) N#Cc1ccc2[nH]cc(CCCN(CC3CC3)[C@@H]3COc4c(F)ccc(C(N)=O)c4C3)c2c1 [Compound 98a]
// pick min by IC50: A , B When you have decided, please share the label of that item.
B
(B: 113 nM, A: 668 nM)

(A) CCCN(C(C)CCc1c[nH]c2ccc(C#N)cc12)C1COc2c(F)ccc(C(N)=O)c2C1 (single isomer, unassigned) [Compound 13a]
(B) NC(=O)c1ccc(F)c2c1CC(N(CC1CCc3[nH]c4ccc(F)cc4c3C1)C1CCC1)CO2 (single isomer, unassigned; (-)) [Compound 174d]
(C) C[C@H](CCN(C1CCC1)[C@H]1COc2c(F)ccc(C(N)=O)c2C1)c1c[nH]c2ccc(F)cc12 [Compound 152a]
(D) CCCN(CCCc1c[nH]c2ccc(F)cc12)C1CCc2c(F)ccc(OC)c2C1 (single isomer, unassigned; (-)) [Compound 51b]
(E) CNC(=O)c1ccc(F)c2c1C[C@@H](N(CCCCc1c[nH]c3ccc(F)cc13)C1CCC1)CO2 [Compound 145b]
Output the entries ranked by IC50 from maximum down to minimum. List each label, following the requested order.
E, C, B, A, D
(E: 848 nM, C: 544 nM, B: 304 nM, A: 76.6 nM, D: 50 nM)

###

# tested-target: 5-HT1A receptor (Homo sapiens)
# assay-overview: cAMP accumulation assay, 5-HT1A function
# Assay type: cell-based
# condition-label: in brackets after EC50 or IC50; read-out: 5-HT1A Function cAMP (Emax)
readout: Emax (%)

(I) COc1cccc2c1CC(N(CCCc1c[nH]c3ccc(F)cc13)C1CC1)CO2 (stereo not shown)
(II) CC(CCc1c[nH]c2c(F)cc(F)cc12)N(CC1CC1)C1COc2c(F)ccc(C(N)=O)c2C1 (single isomer, unassigned) [Compound 154c]
// pick min by Emax: I , II When you have decided, please share the label of that item.
II
(II: 0%, I: 78.5%)

(A) CCCN(CCCc1csc2ccc(F)cc12)C1COc2cccc(OC)c2C1 (stereo not shown)
(B) COc1cccc2c(CCCN(CC3CC3)C3COc4c(F)ccc(C(N)=O)c4C3)c[nH]c12 (stereo not shown)
// pick min by Emax: A , B When you have decided, please share the label of that item.
B
(B: 0%, A: 86.5%)

(1) COC(=O)c1ccc(F)c2c1CC(NCCCc1c[nH]c3ccc(F)cc13)CO2 (stereo not shown)
(2) COc1cccc2c(CCCN(C3CCC3)C3COc4c(F)ccc(C(N)=O)c4C3)coc12 (stereo not shown)
// pick min by Emax: 1 , 2 When you have decided, please share the label of that item.
2

(P) CC(C)CN(CCCc1c[nH]c2ccc(F)cc12)C1COc2cccc(C(N)=O)c2C1 (stereo not shown)
(Q) CCCN(C(C)CCCc1c[nH]c2ccc(F)cc12)C1COc2c(F)ccc(C(N)=O)c2C1 (single isomer, unassigned; (+)) [Compound 14a]
// pick min by Emax: P , Q When you have decided, please share the label of that item.
Q

(A) CCN(CCCc1c[nH]c2ccc(F)cc12)C1COc2cccc(C(N)=O)c2C1 (stereo not shown)
(B) CCCN(CCCc1c[nH]c2ccc(F)cc12)[C@@H]1CCc2cccc(OC)c2C1 [Compound 47b]
(C) CCCN(CCCc1coc2c(OC)cccc12)C1COc2c(F)ccc(C(N)=O)c2C1 (stereo not shown)
Output the entries ranked by Emax from maximum down to minimum. List each label, following the requested order.
B, A, C
(B: 100%, A: 70%, C: 0%)

(A) O=C(NC1CCC1)c1cccc2c1CC(N(CCCc1c[nH]c3c(F)cc(F)cc13)C1CCC1)CO2 (stereo not shown)
(B) COc1cccc2c1CC(N(CCCc1c[nH]c3ccc(C#N)cc13)C1CCC1)CO2 (stereo not shown)
// pick min by Emax: A , B When you have decided, please share the label of that item.
B

(a) CCCN(CCCc1c[nH]c2ccc(Cl)cc12)C1COc2c(F)ccc(C(N)=O)c2C1 (stereo not shown)
(b) CCN(CCCc1coc2c(OC)cccc12)C1COc2c(F)ccc(C(N)=O)c2C1 (stereo not shown)
Return label of the item with the larger Emax. Candidates: a , b . When you have decided, please share the label of that item.
a
(a: 80%, b: 0%)

(A) CCN(CCCc1c[nH]c2ccc(OC)cc12)C1COc2c(F)ccc(C(N)=O)c2C1 (stereo not shown)
(B) C[C@@H](CCN(C1CCC1)[C@@H]1COc2c(F)ccc(C(N)=O)c2C1)c1c[nH]c2ccc(F)cc12 [Compound 153b]
// pick min by Emax: A , B When you have decided, please share the label of that item.
B
(B: 0%, A: 81%)

###

# tested-target: cloned human 5-HT1A receptors (Homo sapiens, UniProt P08908)
# Sequence (P08908 1-422): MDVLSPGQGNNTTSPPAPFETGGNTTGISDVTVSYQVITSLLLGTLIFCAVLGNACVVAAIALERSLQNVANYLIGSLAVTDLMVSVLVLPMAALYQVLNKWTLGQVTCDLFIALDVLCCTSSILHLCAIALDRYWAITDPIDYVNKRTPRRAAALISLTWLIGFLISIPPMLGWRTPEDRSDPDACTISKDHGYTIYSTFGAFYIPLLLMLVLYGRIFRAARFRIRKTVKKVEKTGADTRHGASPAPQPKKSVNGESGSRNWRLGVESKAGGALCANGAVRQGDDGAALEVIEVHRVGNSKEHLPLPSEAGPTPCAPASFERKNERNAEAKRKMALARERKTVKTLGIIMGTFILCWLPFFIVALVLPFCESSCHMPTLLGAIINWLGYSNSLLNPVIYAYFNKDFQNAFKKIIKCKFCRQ
# assay-overview: 35S-GTPγS binding assay, 5-HT1A function
# condition-label: agonist potency
pEC50: −log10 of the molar value.
readout: pEC50

// below: answered compounds
CCCNC(=O)c1cccc2c1CC(N(CCCc1c[nH]c3c(F)cc(F)cc13)C1CCC1)CO2 (stereo not shown)	5.99
COC(=O)c1ccc(F)c2c1CC(NCCCCc1c[nH]c3ccc(F)cc13)CO2 (stereo not shown)	6.61

(a) CCN(CCCc1c[nH]c2ccc(F)cc12)C1COc2cccc(C(N)=O)c2C1 (stereo not shown)
(b) NC(=O)c1cccc2c1CC(N(CCCc1c[nH]c3ccc(F)cc13)CC1CC1)CO2 (stereo not shown)
Return label of the item with the larger pEC50. Candidates: a , b . When you have decided, please share the label of that item.
b
(b: 8.09, a: 7.35)

###

The entries below are paired with their reported melting point.
Counter-ions that a name gives are not always drawn.

CCN(CCCc1c[nH]c2ccc(OC)cc12)C1COc2c(F)ccc(C(N)=O)c2C1 (stereo not shown) (as salt: hydrochloride)	154 to 162 °C (dec.)

Read the entry COC(=O)c1ccc(F)c2c1C[C@@H](N(CCCCc1c[nH]c3ccc(F)cc13)C1CCC1)CO2 (as salt: hydrochloride) [Compound 58b] and write its reported melting point.
209 °C (dec.)

Read the entry NC(=O)c1ccc(F)c2c1CC(NCCCc1c[nH]c3ccc(F)cc13)CO2 (single isomer, unassigned; (+)) (as salt: hydrochloride) [Compound 1a] and write its reported melting point.
89 °C (dec.)

Read the entry CCN(CCCCc1c[nH]c2ccc(F)cc12)C1COc2c(C(N)=O)ccc(F)c2C1 (stereo not shown) (as salt: hydrochloride) and write its reported melting point.
112 °C (dec.)

###

The entries below are paired with their reported melting point.
Counter-ions that a name gives are not always drawn.

COc1cccc2c1CC(N(CCCCc1c[nH]c3ccc(F)cc13)C1CCC1)CO2 (stereo not shown) (as salt: hydrochloride) [Compound 36]	89 °C (dec.)
CCN(CCc1c[nH]c2ccc(F)cc12)C1COc2c(F)ccc(C(N)=O)c2C1 (stereo not shown) (as salt: hydrochloride) [Compound 76]	127 °C (dec.)
N#Cc1ccc2[nH]cc(CCCN(CC3CC3)[C@H]3COc4c(F)ccc(C(N)=O)c4C3)c2c1 (as salt: hydrochloride) [Compound 98b]	160 to 167 °C (dec.)

Lab note: next compound to report on.
Read the entry O=C(NC1CCCCC1)c1ccc(F)c2c1CC(N(CCCc1c[nH]c3ccc(F)cc13)C1CCC1)CO2 (stereo not shown) (as salt: hydrochloride) [Compound 67] and write its reported melting point.
134 °C (dec.)
